molecular target: Estrogen Receptor (ERα) in MCF-7 human ductal carcinoma breast cell line (Homo sapiens, UniProt P03372); construct: endogenous in cells; host or cells: MCF-7; assay: MCF-7 ER degradation assay (cell based immuno-fluorescence); conditions: MCF-7 cells, 18-22 hours incubation, 50% reduction of ERα expression; single experiment or average of two or more; read-out: MCF-7 ER degradation IC50
Sequence (P03372 whole entry): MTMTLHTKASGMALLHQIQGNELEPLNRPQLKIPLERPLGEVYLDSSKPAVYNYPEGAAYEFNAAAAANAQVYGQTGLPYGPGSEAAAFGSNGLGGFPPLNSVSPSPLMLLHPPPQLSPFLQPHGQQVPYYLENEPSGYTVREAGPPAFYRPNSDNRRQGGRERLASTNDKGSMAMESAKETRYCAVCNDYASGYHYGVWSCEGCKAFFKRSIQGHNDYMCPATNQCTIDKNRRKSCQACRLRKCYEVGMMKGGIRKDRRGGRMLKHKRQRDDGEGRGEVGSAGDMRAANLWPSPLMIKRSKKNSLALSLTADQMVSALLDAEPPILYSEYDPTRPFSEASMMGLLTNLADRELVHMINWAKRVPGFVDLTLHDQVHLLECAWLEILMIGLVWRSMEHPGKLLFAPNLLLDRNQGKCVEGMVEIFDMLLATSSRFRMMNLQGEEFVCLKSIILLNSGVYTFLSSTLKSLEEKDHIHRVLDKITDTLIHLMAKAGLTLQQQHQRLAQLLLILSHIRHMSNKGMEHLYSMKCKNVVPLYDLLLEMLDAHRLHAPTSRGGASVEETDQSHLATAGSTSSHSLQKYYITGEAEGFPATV
Observable: DC50 (nM)

1. Cc1ncsc1-c1ccc(CNC(=O)[C@@H]2C[C@@H](O)CN2C(=O)[C@@H](NC(=O)CN(C)CCCCCOc2cc(F)c(C3c4[nH]c5ccccc5c4C[C@@H](C)N3CC(C)(C)F)c(F)c2)C(C)(C)C)cc1 (stereo partly shown) :: 102
2. Cc1ncsc1-c1ccc(CNC(=O)[C@@H]2C[C@@H](O)CN2C(=O)[C@@H](NC(=O)COCCCOCCCCCOc2cc(F)c([C@@H]3c4[nH]c5ccccc5c4C[C@@H](C)N3CC(C)(C)F)c(F)c2)C(C)(C)C)cc1 :: 1.1
3. Cc1ncsc1-c1ccc(CNC(=O)[C@@H]2C[C@@H](O)CN2C(=O)[C@@H](NC(=O)CCCCNC(=O)/C=C/c2cc(F)c([C@@H]3c4[nH]c5ccccc5c4C[C@@H](C)N3CC(C)(C)F)c(F)c2)C(C)(C)C)cc1 :: 0.5
4. Cc1ncsc1-c1ccc([C@H](C)NC(=O)[C@@H]2C[C@@H](O)CN2C(=O)[C@@H](NC(=O)COCCc2ccc(COc3cc(F)c([C@@H]4c5[nH]c6ccccc6c5C[C@@H](C)N4CC(C)(C)F)c(F)c3)nc2)C(C)(C)C)cc1 :: 0.5
